- Target Entity: full-length human CSNK1A1 (Homo sapiens, UniProt P48729)
- Construct: N-terminal Glutathion-S-Transferase (GST) and full-length human CSNK1A1; purchased Life Technologies PV4174; host or cells: baculovirus infected insect cells
- Sequence (P48729 whole entry): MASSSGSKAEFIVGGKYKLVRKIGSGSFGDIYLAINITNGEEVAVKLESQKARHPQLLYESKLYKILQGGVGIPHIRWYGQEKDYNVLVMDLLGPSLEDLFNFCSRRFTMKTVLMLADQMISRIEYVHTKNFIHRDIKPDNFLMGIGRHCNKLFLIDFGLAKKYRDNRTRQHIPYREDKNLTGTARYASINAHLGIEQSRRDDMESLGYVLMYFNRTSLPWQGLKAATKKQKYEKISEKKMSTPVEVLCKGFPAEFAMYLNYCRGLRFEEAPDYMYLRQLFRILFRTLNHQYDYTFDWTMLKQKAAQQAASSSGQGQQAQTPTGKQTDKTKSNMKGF
- Method: CSNK1A1 High ATP Assay (ADP-Glo, 1 mM ATP);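 note: 30 min kinase reaction at 22 °C with 100 µM peptide substrate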
- Format: biochemical
- Protocol Conditions: Table 3, read-out: CSNK1A1 high ATP assay IC50 [mol/l] (median)
pIC50: −log10 of the molar value.
Returns one of yes or no; yes when pIC50 is >= 8.

[[record]]
compound = "O=C(Nc1cc(-c2[nH]c3nccnc3c2-c2ccccn2)ccn1)[C@@H](CC(F)F)c1ccc(F)cc1 (single isomer, unassigned)"
class = "yes"

[[record]]
compound = "O=C(Nc1cc(-c2[nH]c3ccc(Cl)nc3c2-c2ccccn2)ccn1)C(CC(F)F)c1ccc(F)cc1 (racemic)"
class = "yes"

[[record]]
compound = "O=C(Nc1cc(-c2[nH]c3ccc(F)nc3c2-c2ccccn2)ccn1)C(CC(F)F)c1ccc(F)cc1 (racemic)"
class = "no"

